Each recorded value in this set is attributed to ChEMBL document CHEMBL5370658.

- study_target: UniProtKB Q9NTG7
- Sequence (Q9NTG7 whole entry): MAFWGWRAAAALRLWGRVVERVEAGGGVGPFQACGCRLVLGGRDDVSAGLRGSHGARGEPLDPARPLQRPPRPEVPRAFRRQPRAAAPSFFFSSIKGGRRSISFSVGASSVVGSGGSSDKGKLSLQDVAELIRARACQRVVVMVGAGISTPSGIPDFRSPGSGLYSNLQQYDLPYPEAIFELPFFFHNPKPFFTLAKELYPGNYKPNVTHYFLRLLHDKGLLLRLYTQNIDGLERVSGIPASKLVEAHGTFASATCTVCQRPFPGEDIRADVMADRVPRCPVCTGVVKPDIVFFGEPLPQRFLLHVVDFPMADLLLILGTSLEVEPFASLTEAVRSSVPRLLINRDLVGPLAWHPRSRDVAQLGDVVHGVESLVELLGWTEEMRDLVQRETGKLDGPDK
- experimental_details: Inhibition of recombinant human Sirt3 (118 to 395 residues) expressed in Escherichia coli BL21 Star (DE3) using ZMAL as substrate incubated for 4 hrs in presence of NAD+ by trypsin based fluorescence analysis
pIC50: −log10 of the molar value.
metric_name: pIC50

Given the compound COCCn1cc(COc2cccc(Cc3cnc(NC(=O)CSc4nc(C)cc(C)n4)s3)c2)nn1 , what is its reported pIC50?
< 4.00
